As shown below, each of these binders has a reported pKd value.
Molecular target: T1, EsCas13d, nuclease-dead (Eubacterium siraeum, UniProt B0MS50, R295A;H300A;R849A;H854A)
T1 sequence: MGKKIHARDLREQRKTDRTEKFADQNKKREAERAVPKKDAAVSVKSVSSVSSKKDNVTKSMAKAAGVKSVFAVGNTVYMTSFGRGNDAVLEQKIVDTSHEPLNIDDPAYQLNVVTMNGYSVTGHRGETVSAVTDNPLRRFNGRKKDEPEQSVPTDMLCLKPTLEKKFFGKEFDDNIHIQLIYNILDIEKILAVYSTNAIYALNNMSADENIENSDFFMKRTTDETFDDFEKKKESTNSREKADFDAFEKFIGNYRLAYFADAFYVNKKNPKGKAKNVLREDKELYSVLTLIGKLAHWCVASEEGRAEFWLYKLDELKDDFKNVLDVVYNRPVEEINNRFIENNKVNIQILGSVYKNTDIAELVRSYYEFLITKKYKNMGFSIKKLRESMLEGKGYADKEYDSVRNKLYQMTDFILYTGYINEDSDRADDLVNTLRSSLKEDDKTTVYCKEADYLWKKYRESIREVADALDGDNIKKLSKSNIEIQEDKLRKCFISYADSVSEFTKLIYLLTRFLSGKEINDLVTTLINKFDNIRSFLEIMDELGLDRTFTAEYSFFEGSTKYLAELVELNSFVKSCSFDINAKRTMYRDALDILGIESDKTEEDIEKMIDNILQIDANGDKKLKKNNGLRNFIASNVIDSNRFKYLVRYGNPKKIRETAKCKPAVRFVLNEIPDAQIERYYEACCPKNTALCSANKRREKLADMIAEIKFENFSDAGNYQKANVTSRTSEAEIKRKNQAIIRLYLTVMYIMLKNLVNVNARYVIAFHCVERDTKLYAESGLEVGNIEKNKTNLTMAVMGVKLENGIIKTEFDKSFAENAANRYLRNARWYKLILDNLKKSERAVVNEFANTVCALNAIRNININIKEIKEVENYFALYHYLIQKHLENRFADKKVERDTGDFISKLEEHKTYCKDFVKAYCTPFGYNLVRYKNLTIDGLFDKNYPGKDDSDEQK
Assay: crRNA (strand 1, pre-loaded); Mg2+; 40 mM Tris-HCl pH 7.5, 150 mM NaCl, 6 mM MgCl2, 1 mM DTT, 0.1% Tween-20, 0.2 mg/ml BSA; 25 C; 10 min per concentration, then washed
Details: tags: His6-TwinStrep-SUMO cleaved; N-terminal SNAP kept (SNAP-Surface 488); label: 3' end held by stalled T7 RNA polymerase
pKd: −log10 of the molar value.
reported-metric: pKd

binder	experimental-result
target 1 MT 5'PFS GUU 3'PFS CAC (mixed) RNA 1: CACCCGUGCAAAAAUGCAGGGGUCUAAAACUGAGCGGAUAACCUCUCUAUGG RNA 2: GGGAAUGGAUCCACAUCUACGAAUUCGUUCCAUAGAGAGGUUAUCCGCUCACACAGAUCGGAAGAGCACACGU	7.65
target 1 insG 3' of 21,insA 3' of 2 (mixed) RNA 1: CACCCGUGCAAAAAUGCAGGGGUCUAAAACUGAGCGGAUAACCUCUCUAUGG RNA 2: GGGAAUGGAUCCACAUCUACGAAUUCGUACCGAUAGAGAGGUUAUCCGCUCAACCGAGAUCGGAAGAGCACACGU	7.27
target 1 insU 3' of 15,insU 3' of 2 (mixed) RNA 1: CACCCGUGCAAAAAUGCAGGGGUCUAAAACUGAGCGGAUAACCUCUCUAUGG RNA 2: GGGAAUGGAUCCACAUCUACGAAUUCGUACCAUAGAGUAGGUUAUCCGCUCUACCGAGAUCGGAAGAGCACACGU	7.95
target 2 MT 5'PFS GUA 3'PFS UAU (mixed) RNA 1: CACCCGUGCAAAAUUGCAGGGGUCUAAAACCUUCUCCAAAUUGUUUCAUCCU RNA 2: GGGAAUGGAUCCACAUCUACGAAUUCGUAAGGAUGAAACAAUUUGGAGAAGUAUAGAUCGGAAGAGCACACGU	8.11

Source listed as paper PMC10786891.
